I'd appreciate it if you could supply IC50 values for the items below.
Test system: P-Akt (S473)
Assay: Cell based AlphaLISA assay, inhibition of P-Akt (S473) (mTORC2 substrate phosphorylation) in MDA-MB-468 cells
Conditions: Homo sapiens, MDA-MB-468, 4 h, AlphaLISA, two to four hours at 37° C., read-out: pIC50 for Inhibition of mTORC1 and mTORC2 Substrate Phosphorylation, p-AKT 1/2/3 -(S473) (converted)

Check out these entries, answers already filled in.
CO[C@H]1C[C@@H]2CC[C@@H](C)[C@@](O)(O2)C(=O)C(=O)N2CCCC[C@H]2C(=O)O[C@H]([C@H](C)C[C@@H]2CC[C@H](n3cc(-c4cnc(N5CCN(c6ncc(C(=O)NCCOCCOCCOCCOCCOCCC(=O)NCCCCn7nc(-c8ccc9oc(N)nc9c8)c8c(N)ncnc87)cn6)CC5)nc4)nn3)[C@H](OC)C2)CC(=O)[C@H](C)/C=C(\C)[C@@H](O)[C@@H](OC)C(=O)[C@H](C)C[C@H](C)/C=C/C=C/C=C/1C: 3.16 to 31.6 nM
CO[C@H]1C[C@@H]2CC[C@@H](C)[C@@](O)(O2)C(=O)C(=O)N2CCCC[C@H]2C(=O)O[C@H]([C@H](C)C[C@@H]2CC[C@H](n3nncc3-c3cccc(-c4cnc(N5CCN(Cc6cn(CCOCCOCCOCCC(=O)NCCCCn7nc(-c8ccc9oc(N)nc9c8)c8c(N)ncnc87)nn6)CC5)nc4)c3)[C@H](OC)C2)CC(=O)[C@H](C)/C=C(\C)[C@@H](O)[C@@H](OC)C(=O)[C@H](C)C[C@H](C)/C=C/C=C/C=C/1C: 3.16 to 31.6 nM
CO[C@H]1C[C@@H]2CC[C@@H](C)[C@@](O)(O2)C(=O)C(=O)N2CCCC[C@H]2C(=O)O[C@H]([C@H](C)C[C@@H]2CC[C@@H](OCCCCc3cn(CCOCCOCCOCCC(=O)NCCOCCOCCOCCC(=O)NCCCCn4nc(-c5cc6cc(O)ccc6[nH]5)c5c(N)ncnc54)nn3)[C@H](OC)C2)CC(=O)[C@H](C)/C=C(\C)[C@@H](O)[C@@H](OC)C(=O)[C@H](C)C[C@H](C)/C=C/C=C/C=C/1C: 31.6 to 1000 nM
CO[C@H]1C[C@@H]2CC[C@@H](C)[C@@](O)(O2)C(=O)C(=O)N2CCCC[C@H]2C(=O)O[C@H]([C@H](C)C[C@@H]2CC[C@@H](OCc3cccc(-c4cnc(N5CCN(Cc6cn(CCOCCOCCOCCOCCOCCC(=O)NCCCCn7nc(-c8ccc9oc(N)nc9c8)c8c(N)ncnc87)nn6)CC5)nc4)c3)[C@H](OC)C2)CC(=O)[C@H](C)/C=C(\C)[C@@H](O)[C@@H](OC)C(=O)[C@H](C)C[C@H](C)/C=C/C=C/C=C/1C: 3.16 to 31.6 nM
COc1ccc(-c2ccc3ncc4c(c3c2)n(-c2ccc(N3CCN(c5ncc(CNC(=O)CCOCCOCCOCCOCCOCCOCCn6cc(CCCCO[C@@H]7CC[C@@H](C[C@@H](C)[C@@H]8CC(=O)[C@H](C)/C=C(\C)[C@@H](O)[C@@H](OC)C(=O)[C@H](C)C[C@H](C)/C=C/C=C/C=C(\C)[C@@H](OC)C[C@@H]9CC[C@@H](C)[C@@](O)(O9)C(=O)C(=O)N9CCCC[C@H]9C(=O)O8)C[C@H]7OC)nn6)cn5)CC3)c(C(F)(F)F)c2)c(=O)n4C)cn1: < 3.16 nM

Respectfully, I request IC50 for each entry included below.
1. COc1cccc2cc(-c3nc([C@H]4CC[C@H](C(=O)NCCOCCOCCNC(=O)CCOCCOCCOCCOCCn5cc(CCCCO[C@@H]6CC[C@@H](C[C@@H](C)[C@@H]7C[C@@H](OC)[C@H](C)/C=C(\C)[C@@H](O)[C@@H](OC)C(=O)[C@H](C)C[C@H](C)/C=C/C=C/C=C(\C)[C@@H](OC)C[C@@H]8CC[C@@H](C)[C@@](O)(O8)C(=O)C(=O)N8CCCC[C@H]8C(=O)O7)C[C@H]6OC)nn5)CC4)n4ncnc(N)c34)[nH]c12
2. COC(=O)NC1C[C@@H]2CC[C@@H](C)[C@@](O)(O2)C(=O)C(=O)N2CCCC[C@H]2C(=O)O[C@H]([C@H](C)C[C@@H]2CC[C@@H](OCCCCc3cn(CCOCCOCCOCCOCCOCCOCCC(=O)NCCCCn4nc(-c5ccc6oc(N)nc6c5)c5c(N)ncnc54)nn3)[C@H](OC)C2)CC(=O)[C@H](C)/C=C(\C)[C@@H](O)[C@@H](OC)C(=O)[C@H](C)C[C@H](C)/C=C/C=C/C=C/1C (stereo partly drawn)
3. CO[C@H]1C[C@@H]2CC[C@@H](C)[C@@](O)(O2)C(=O)C(=O)N2CCCC[C@H]2C(=O)O[C@H]([C@H](C)C[C@@H]2CC[C@H](n3cc(CCCC(=O)NCCOCCOCCOCCC(=O)NCCOCCOCCOCCC(=O)NCCCCn4nc(-c5cc6cc(O)ccc6[nH]5)c5c(N)ncnc54)nn3)[C@H](OC)C2)C/C(=N/OC(C)(C)C)[C@H](C)/C=C(\C)[C@@H](O)[C@@H](OC)C(=O)[C@H](C)C[C@H](C)/C=C/C=C/C=C/1C
4. CO[C@H]1C[C@@H]2CC[C@@H](C)[C@@](O)(O2)C(=O)C(=O)N2CCCC[C@H]2C(=O)O[C@H]([C@H](C)C[C@@H]2CC[C@@H](OC(=O)NCc3cn(CCOCCOCCOCCOCCOCCOCCOCCOCCC(=O)NCCCCn4nc(-c5ccc6oc(N)nc6c5)c5c(N)ncnc54)nn3)[C@H](OC)C2)CC(=O)[C@H](C)/C=C(\C)[C@@H](O)[C@@H](OC)C(=O)[C@H](C)C[C@H](C)/C=C/C=C/C=C/1C

1. 31.6 to 1000 nM
2. 31.6 to 1000 nM
3. > 1000 nM
4. 3.16 to 31.6 nM
